test.system: hMGL (Homo sapiens, UniProt Q99685)
Construct: A full-length cDNA clone of the human MGL transcript variant 1; made in house; host or cells: E. coli BL21 (DE3)
Sequence (Q99685 2-303 limits assumed): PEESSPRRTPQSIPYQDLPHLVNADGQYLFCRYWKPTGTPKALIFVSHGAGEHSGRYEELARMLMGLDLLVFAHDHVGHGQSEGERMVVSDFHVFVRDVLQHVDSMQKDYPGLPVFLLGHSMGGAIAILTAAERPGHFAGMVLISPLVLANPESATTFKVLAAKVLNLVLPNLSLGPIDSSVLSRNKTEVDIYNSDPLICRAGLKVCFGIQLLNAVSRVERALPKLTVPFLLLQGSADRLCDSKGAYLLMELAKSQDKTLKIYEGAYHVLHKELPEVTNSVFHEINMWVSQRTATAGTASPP
assay.explanation: Fluorescent enzyme assay, MGL (AHMMCE hydrolysis)
Assay type: biochemical
setup.conditions: 1000 nM inhibitor; AHMMCE substrate; screening assay
Protocol: Some analogs were tested for their FAAH/MGL inhibitory activity, which is expressed as % of inhibition (Tables 2, 3, and 4 below). The percentage of inhibition results from three-point assay (three concentrations of inhibitor are used) and it is less accurate (preliminary screening) than the IC50/Ki values that are determined from eight-point assay (eight different concentrations of inhibitor were used). […]

compound	inhibition at 1 µM [%]
CC(=O)Nc1ccc(Cc2nnnn2C(=O)N(C)C)cc1 [Compound 25b]	90
CN(C)C(=O)n1cnc2cncnc21 [Compound 61, N,N-dimethyl-9H-purine-9-carboxamide]	87
CN(C)C(=O)n1cnnc1	79
CN(CCCCCl)C(=O)n1cnc(-c2ccccc2)n1	71
O=C(N(c1ccccc1)c1ccccc1)n1nnnc1Cc1ccc(Cl)cc1Cl	21
CN(C)C(=O)n1cnc2ncncc21 [Compound 60, N,N-dimethyl-7H-purine-7-carboxamide]	86
CN(C)C(=O)n1cnc(-c2ccccc2)n1	87
CN(CCCCCl)C(=O)n1cnc(-c2ccccc2)c1	15
CN(C)C(=O)n1nnc(Cc2ccncc2)n1	40
CC(C)N(C(=O)n1nnc(Cc2ccc(Cl)cc2Cl)n1)C(C)C	11
CC(=O)Nc1ccc(Cc2nnn(C(=O)N(C)C)n2)cc1 [Compound 25a]	99
CN(CCCCN=[N+]=[N-])C(=O)n1cnc(-c2ccccc2)c1	14
O=C(N1CCN(Cc2ccccc2)CC1)n1nnc(Cc2ccc(Cl)cc2Cl)n1	63
CN(C)C(=O)n1cnc(-c2ccccc2)c1	6
CN(C)C(=O)N1CC(Cc2ccccc2)OC1=O (centres unmarked)	3
COc1ccc(Cc2nnnn2C(=O)N(C)C)cc1 [Compound 24b]	96
C#CCc1nnnn1C(=O)N(C)C	35
CN(CCCCN=C=S)C(=O)n1cnc(-c2ccccc2)c1	7
CN(C)C(=O)n1cc(Cc2ccccc2)nn1	99
CN(C)C(=O)N1C=NC2C(N=CN2C(=O)N(C)C)C1=O (centres unmarked)	83
CN(C)C(=O)N1CC(C(C)(C)C)OC1=O (centres unmarked)	66
CN(C)C(=O)n1nnc(Cc2ccc(-c3ccncc3)cc2)n1	10
CN(C)C(=O)n1ccc(-c2ccccc2)n1	11
CN(C)C(=O)n1nnc(C(F)(F)c2ccccc2)n1	92
O=C(N1CCC2(CC1)OCCO2)n1nnc(Cc2ccc(Cl)cc2Cl)n1	52
O=C(N(c1ccccc1)c1ccccc1)n1nnc(Cc2ccc(Cl)cc2Cl)n1	100

---

test.system: ΔTM rFAAH (Rattus norvegicus, UniProt P97612)
Construct: 15 ug of ΔTM rFAAH (cell lysate obtained by recombinant procedure); made in house
Sequence (P97612 30-579 limits assumed, stated change not applied): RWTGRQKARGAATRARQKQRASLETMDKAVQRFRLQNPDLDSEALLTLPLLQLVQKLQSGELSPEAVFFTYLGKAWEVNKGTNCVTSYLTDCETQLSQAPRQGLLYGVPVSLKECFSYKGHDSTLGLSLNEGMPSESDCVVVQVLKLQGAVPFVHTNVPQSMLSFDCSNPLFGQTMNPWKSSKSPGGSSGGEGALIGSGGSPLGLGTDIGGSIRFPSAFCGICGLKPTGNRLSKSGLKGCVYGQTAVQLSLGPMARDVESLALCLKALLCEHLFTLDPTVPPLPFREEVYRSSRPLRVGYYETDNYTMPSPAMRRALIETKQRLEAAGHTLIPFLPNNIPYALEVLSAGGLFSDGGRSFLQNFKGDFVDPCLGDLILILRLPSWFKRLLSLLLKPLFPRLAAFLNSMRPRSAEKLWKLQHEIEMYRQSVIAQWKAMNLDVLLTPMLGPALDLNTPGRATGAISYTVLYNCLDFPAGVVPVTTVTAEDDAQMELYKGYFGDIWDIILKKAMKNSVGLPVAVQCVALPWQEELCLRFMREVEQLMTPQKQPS
assay.explanation: Fluorescent enzyme assay, FAAH (AAMCA hydrolysis)
Assay type: biochemical
setup.conditions: 1000 nM inhibitor; AAMCA substrate; screening assay
quantity: inhibition at 1 µM (%)

compound	quantity	value.measured
CN(C)C(=O)n1nnc(Cc2ccc(-c3ccncc3)cc2)n1 [Compound 44]	inhibition at 1 µM	12
CN(CCCCN=[N+]=[N-])C(=O)n1cnc(-c2ccccc2)c1 [Compound 48]	inhibition at 1 µM	90
CN(C)C(=O)N1C=NC2C(N=CN2C(=O)N(C)C)C1=O (centres unmarked) [Compound 62]	inhibition at 1 µM	99
CN(CCCCN=C=S)C(=O)n1cnc(-c2ccccc2)c1 [Compound 49]	inhibition at 1 µM	90
CN(C)C(=O)n1ccc(-c2ccccc2)n1 [Compound 30]	inhibition at 1 µM	23
CN(C)C(=O)n1cnc2ncncc21 [Compound 60, N,N-dimethyl-7H-purine-7-carboxamide]	inhibition at 1 µM	96
CN(CCCCCl)C(=O)n1cnc(-c2ccccc2)c1 [Compound 47]	inhibition at 1 µM	90
O=C(N1CCC2(CC1)OCCO2)n1nnc(Cc2ccc(Cl)cc2Cl)n1 [Compound 14]	inhibition at 1 µM	97
CN(C)C(=O)n1nnc(Cc2ccc3ccccc3c2)n1 [Compound 51]	inhibition at 1 µM	30
CC(=O)Nc1ccc(Cc2nnnn2C(=O)N(C)C)cc1 [Compound 25b]	inhibition at 1 µM	88
O=C(N(c1ccccc1)c1ccccc1)n1nnc(Cc2ccc(Cl)cc2Cl)n1 [Compound 8a]	inhibition at 1 µM	66
CN(C)C(=O)n1cc(Cc2ccccc2)nn1 [Compound 70]	inhibition at 1 µM	98
CC(C)N(C(=O)n1nnc(Cc2ccc(Cl)cc2Cl)n1)C(C)C [Compound 10]	inhibition at 1 µM	94
CN(C)C(=O)n1nnc(Cc2ccc(-c3cccnc3)cc2)n1 [Compound 43]	inhibition at 1 µM	34
CN(C)C(=O)n1cnc2cncnc21 [Compound 61, N,N-dimethyl-9H-purine-9-carboxamide]	inhibition at 1 µM	87
CN(C)C(=O)n1nnc(Cc2ccncc2)n1 [Compound 39]	inhibition at 1 µM	21
CN(CCCCCl)C(=O)n1cnc(-c2ccccc2)n1 [Compound 53]	inhibition at 1 µM	100
CC(=O)Nc1ccc(Cc2nnn(C(=O)N(C)C)n2)cc1 [Compound 25a]	inhibition at 1 µM	100
CN(C)C(=O)n1cnc(-c2ccccc2)c1 [Compound 33]	inhibition at 1 µM	88
CN(C)C(=O)N1CC(Cc2ccccc2)OC1=O (centres unmarked) [Compound 32]	inhibition at 1 µM	5
